Assay System: human GcgR (Homo sapiens, UniProt P47871)
Sequence (P47871 26-477): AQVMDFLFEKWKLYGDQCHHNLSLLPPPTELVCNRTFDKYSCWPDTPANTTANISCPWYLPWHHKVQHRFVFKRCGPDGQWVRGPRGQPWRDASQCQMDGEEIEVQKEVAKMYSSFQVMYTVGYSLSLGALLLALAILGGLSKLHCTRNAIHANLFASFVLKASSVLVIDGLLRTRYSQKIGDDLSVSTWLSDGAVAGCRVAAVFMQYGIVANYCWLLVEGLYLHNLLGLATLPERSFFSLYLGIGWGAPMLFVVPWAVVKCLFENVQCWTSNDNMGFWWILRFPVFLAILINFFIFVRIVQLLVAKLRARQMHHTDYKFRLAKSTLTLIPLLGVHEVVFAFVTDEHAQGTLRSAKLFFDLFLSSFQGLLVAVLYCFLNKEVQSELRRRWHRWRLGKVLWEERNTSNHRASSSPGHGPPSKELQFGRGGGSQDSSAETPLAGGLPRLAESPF
Protocol Details: Functional cAMP activity in the presence of 1% HSA
Format: cell-based
Assay Setup: read-out: cAMP Rel EC50, hGcgR
Starred links: 1 amine or outer side, 2 acyl side, 3 side chain; linkers in the order of their positions; H or OH if unused. Non-standard residues stand in square brackets, D forms with d. Groups on a side chain read outwards from the residue. No end group written: not given here. *: point of attachment. C20 diacid = O=C(O)CCCCCCCCCCCCCCCCCCC(=O)*; C18 diacid = O=C(O)CCCCCCCCCCCCCCCCC(=O)*; αMePhe(2-F) = C[C@](N)(Cc1ccccc1F)C(=O)O; γGlu = O=C(O)[C@H](CCC(=O)[*:2])N[*:1]; αMe4Pal = C[C@](N)(Cc1ccncc1)C(=O)O; αMeY = C[C@](N)(Cc1ccc(O)cc1)C(=O)O; 4Pal = N[C@@H](Cc1ccncc1)C(=O)O; αMeL = CC(C)C[C@](C)(N)C(=O)O; αMeS = C[C@](N)(CO)C(=O)O; Orn = NCCC[C@H](N)C(=O)O; AEEA = NCCOCCOCC(=O)O; Aib = CC(C)(N)C(=O)O
Kindly supply the reported pEC50 values for the records listed here.
Answers are plain numbers, as −log10 of the molar value.

Worked examples, 10 substances total:
1) H-Y[Aib]QGTFTSDFS[Orn][αMeL]LDKK([AEEA-AEEA-γGlu-C20 diacid])AQ[Aib]AFIEYLLE[Aib]GPSSGEPPPGEG-NH2 [Example 69] | 6.41
2) H-Y[Aib]QGTFTSDFS[Orn][αMeL]LDKK([AEEA-γGlu-C20 diacid])AQ[Aib]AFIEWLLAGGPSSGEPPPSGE-NH2 [Example 103] | 5.59
3) H-Y[Aib]QGTFTSD[4Pal]SQ[αMeL]LD[Orn]K([AEEA-γGlu-C18 diacid])AQ[αMe4Pal]QFIE[αMeY]LIA[Aib]GPSSGEPPPSGSEE-NH2 [Example 1100] | 6.24
4) H-Y[Aib]QGT[αMePhe(2-F)]TSD[4Pal]SI[αMeL]LD[Orn]K([AEEA-γGlu-C18 diacid])AQ[αMe4Pal][Orn]FI[dE][αMeY]LIEGGPSSGEPPPESE-NH2 [Example 677] | 6.72
5) H-Y[Aib]QGTFTSD[4Pal]S[Orn][αMeL]LDKK([AEEA-γGlu-C18 diacid])AQ[Aib]AFIEYLLE[dA]GPSSGAPPPSG[4Pal]-NH2 [Example 274] | 5.95
6) H-Y[Aib]QGTFTSDFSK[αMeL]LDKK([AEEA-γGlu-C20 diacid])AQ[Aib]AFIEYLLAGGPSSGEPPPSSG-NH2 [Example 7] | 5.92
7) H-Y[Aib]QGTFTSDFS[Orn][αMeL]LDKK([AEEA-γGlu-C18 diacid])AQ[Aib]AFIEYLLE[Aib]GHSSGAPPPSGS-NH2 [Example 241] | 6.27
8) H-Y[Aib]QGT[αMePhe(2-F)]TSD[4Pal][αMeS]I[αMeL]LD[Orn]K([AEEA-γGlu-C18 diacid])AQ[Aib][Orn]FI[dE][αMeY]LIEGGPSSGEPEPSEG-NH2 [Example 481] | 7.00
9) H-Y[Aib]QGT[αMePhe(2-F)]TSD[4Pal]SI[αMeL]LD[Orn]K([γGlu-γGlu-C18 diacid])AQ[αMe4Pal]EFI[dE][αMeY]LQEGGPSSGAPPPSGS-NH2 [Example 647] | 5.92
10) H-Y[Aib]QGT[αMePhe(2-F)]TSDYSI[αMeL]LD[Orn]K([AEEA-γGlu-C18 diacid])AQ[Aib]AFI[dE]YLLEGGPSSGAPPPSEG-NH2 [Example 404] | 6.13

Now for the substance whose pEC50 we want.
Short answer please: pEC50, human GcgR (Homo sapiens, UniProt P47871), entry Y[Aib]QGTFTSD[4Pal]SQ[αMeL]LDKK([γGlu-γGlu-C18 diacid])AQ[αMe4Pal]AFIEYLIE[Aib]GPSSGAPPPSGS-NH2 [Example 858] 6.17

All values here come from patent US20240270821A1.
